TEST_SYSTEM: sigma-1 receptor (Homo sapiens)
PROTOCOL_NOTES: sigma-1 receptor binding affinity (Ki)
MEASURED_ATTRIBUTE: activity against sigma-1 (in words)

>>> readout_value("CCCn1nc(C(=O)N(C)C)c2c1CCC(SCc1ccc(F)cc1)C2 (stereo not shown) [compound 200624]")
"completely lost"
>>> readout_value("CCCn1nc(C(=O)N(C)C)c2c1CCC(OCc1ccc(F)cc1)C2 (stereo not shown) [compound 200622]")
"completely lost"

###

TEST_SYSTEM: sigma-1 receptor (Homo sapiens, UniProt Q99720)
Sequence (Q99720 whole entry, species assumed): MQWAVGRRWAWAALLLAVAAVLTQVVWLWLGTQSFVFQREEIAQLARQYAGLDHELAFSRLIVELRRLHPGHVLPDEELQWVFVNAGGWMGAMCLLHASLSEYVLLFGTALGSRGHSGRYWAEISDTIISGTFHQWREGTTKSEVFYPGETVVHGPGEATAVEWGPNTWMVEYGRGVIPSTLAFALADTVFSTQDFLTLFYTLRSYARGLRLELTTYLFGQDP
PROTOCOL_NOTES: sigma-1 receptor binding affinity (Ki)
EXPERIMENTAL_SETUP: read-out: Ki (nM) Sigma-1
Flag rule - Ki less than 500 nM flags true (1); the remaining entries get false (0).

>>> label_class("CCCn1nc(C(=O)N(C)C)c2c1CCC(NS(=O)(=O)c1ccc(F)cc1)C2 (stereo not shown)")
"false (0)"
>>> label_class("CCCn1nc(C(=O)N(C)C)c2c1CCC(OCc1ccc(F)cc1)C2 (stereo not shown)")
"false (0)"
>>> label_class("NC(=O)c1ccc(-n2nc(C(=O)N3CCCCC3)c3c2CCC(NCCc2ccccc2)C3)cc1 (stereo not shown)")
"true (1)"
>>> label_class("CCCn1nc(C(=O)N2CCCCC2)c2c1CCC(Nc1ccc(Oc3ccccc3)cc1)C2 (stereo not shown)")
"false (0)"
>>> label_class("CCCn1nc(C(=O)N2CCCCC2)c2c1CCC(N1CCN(C)CC1)C2 (stereo not shown)")
"true (1)"
>>> label_class("O=C(c1c2c(nn1-c1ccccc1)CCC(NCCc1ccc(C(F)(F)F)cc1)C2)N1CCCCC1 (stereo not shown)")
"true (1)"
>>> label_class("C=Cc1ccc(-n2nc(C(=O)N3CCCCC3)c3c2CCC(NCCc2ccccc2)C3)cc1 (stereo not shown)")
"true (1)"
>>> label_class("CCCn1nc(C(=O)N(C)C)c2c1CCC(NCCc1ccc(C(F)(F)F)cc1)C2 (stereo not shown)")
"false (0)"
>>> label_class("CCCn1nc(C(=O)N2CCCCC2)c2c1CCC(NCCc1cccc(O)c1)C2 (stereo not shown)")
"false (0)"
>>> label_class("O=C(c1nn(-c2ccccc2)c2c1CC(NCCc1ccc(C(F)(F)F)cc1)CC2)N1CCCCC1 (stereo not shown)")
"true (1)"
>>> label_class("O=C(c1nn(-c2ccccc2)c2c1CC(NCc1ccccc1)CC2)N1CCCCC1 (stereo not shown)")
"false (0)"
>>> label_class("O=C(c1c2c(nn1-c1ccc(F)cc1)CCC(NCc1ccc(F)cc1)C2)N1CCCCC1 (stereo not shown)")
"true (1)"
>>> label_class("O=C(c1nn(Cc2ccccc2)c2c1CC(NCc1ccc(F)cc1)CC2)N1CCCCC1 (stereo not shown)")
"true (1)"
>>> label_class("O=C(c1nn(Cc2ccccc2)c2c1CC(NCCc1ccncc1)CC2)N1CCCCC1 (stereo not shown)")
"true (1)"
>>> label_class("CCCn1nc(C(=O)N2CCCCC2)c2c1CCC(N1CCC(N(C)C)CC1)C2 (stereo not shown)")
"false (0)"
>>> label_class("O=C(c1nn(-c2ccccc2)c2c1CC(NCCc1cccc(O)c1)CC2)N1CCCCC1 (stereo not shown)")
"true (1)"

###

TEST_SYSTEM: sigma-2 receptor (Homo sapiens, UniProt Q5BJF2)
Sequence (Q5BJF2 whole entry, species assumed): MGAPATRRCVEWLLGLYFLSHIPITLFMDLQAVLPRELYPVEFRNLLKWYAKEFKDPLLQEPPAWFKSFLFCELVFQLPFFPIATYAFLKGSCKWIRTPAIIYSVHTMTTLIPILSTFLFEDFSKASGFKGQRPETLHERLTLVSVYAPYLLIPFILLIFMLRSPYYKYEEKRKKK
PROTOCOL_NOTES: sigma-2 receptor binding affinity (Ki)
EXPERIMENTAL_SETUP: read-out: Ki sigma-2
pKi: −log10 of the molar value.
MEASURED_ATTRIBUTE: pKi

>>> readout_value("CCCn1nc(C(=O)N(C)C)c2c1CCC(NCc1ccc(F)cc1)C2 (stereo not shown)")
5.68
